Each entry below carries its reported inhibition.
molecular target: Genome polyprotein (Dengue virus type 2 (strain 16681-PDK53)); experiment: flavivirus cap methylation enzyme inhibition – biochemical, confirmation dose response, primary screen (AID 588689); conditions: Dengue-2 NS5 methyltransferase capping enzyme assay, at 25 µM, stronger effect = higher value
The whole screen tested about 340,000 compounds, of which about 1,000 (0.29%) were called active. Only a sample is shown. Entries with a potency or affinity are not part of this list.
valueKind: inhibition (%)

>  <molecule>
O=C(CCCN1C(=O)/C(=C\c2cccs2)SC1=S)Nc1ccc(O)cc1C(=O)O

>  <valueKind>
inhibition

>  <scaleUnit>
%

>  <val>
-9.83

$$$$
>  <molecule>
Cc1cccc(C)c1OCC(O)Cn1c2ccccc2c2ccccc21 (stereo not drawn)

>  <valueKind>
inhibition

>  <scaleUnit>
%

>  <val>
-10.5

$$$$
>  <molecule>
O=C(COC(=O)c1cc(Br)ccc1O)NNC(=O)c1cccs1

>  <valueKind>
inhibition

>  <scaleUnit>
%

>  <val>
0

$$$$
>  <molecule>
COc1cc(O)c2c(c1)OC(C)(C)CC2=O

>  <valueKind>
inhibition

>  <scaleUnit>
%

>  <val>
-2.94

$$$$
>  <molecule>
O=[N+]([O-])c1ccc(O)c(C=Nc2ccc3c(c2)OCCO3)c1

>  <valueKind>
inhibition

>  <scaleUnit>
%

>  <val>
2.55

$$$$
>  <molecule>
C[C@@H](C(=O)Nc1ccc2ccccc2c1)[C@H]1C[C@]1(C)[C@H](NC(=O)OCc1ccccc1)c1ccccc1

>  <valueKind>
inhibition

>  <scaleUnit>
%

>  <val>
4.76

$$$$
>  <molecule>
N#Cc1c(NC(=O)C(=O)NCCCN2CCOCC2)sc2c1CCC2

>  <valueKind>
inhibition

>  <scaleUnit>
%

>  <val>
-10.5

$$$$
>  <molecule>
COc1ccc(/C=C2\SC(=S)N(C(Cc3ccccc3)C(=O)O)C2=O)cc1 (stereo not drawn)

>  <valueKind>
inhibition

>  <scaleUnit>
%

>  <val>
20.7

$$$$
>  <molecule>
COCC(COS(N)(=O)=O)Cc1ccccc1 (stereo not drawn)

>  <valueKind>
inhibition

>  <scaleUnit>
%

>  <val>
-5.61

$$$$
>  <molecule>
Cc1ccc(CNC(=O)CCS(=O)(=O)c2ccc(Br)cc2)cc1

>  <valueKind>
inhibition

>  <scaleUnit>
%

>  <val>
-2.71

$$$$
>  <molecule>
Cc1ccc2cc(C=O)c(N(C)C)nc2c1

>  <valueKind>
inhibition

>  <scaleUnit>
%

>  <val>
1.3

$$$$
>  <molecule>
O=C(O)C1=CC[C@@H](c2ccc(Cl)cc2)N(S(=O)(=O)c2ccc(Cl)cc2)[C@H]1c1ccccc1

>  <valueKind>
inhibition

>  <scaleUnit>
%

>  <val>
15.7

$$$$
>  <molecule>
CCOc1ccc2nc(N/C(N)=N/S(=O)(=O)c3ccc(C)cc3)nc(C)c2c1

>  <valueKind>
inhibition

>  <scaleUnit>
%

>  <val>
-2.74

$$$$
>  <molecule>
CC1(C)CC(=O)c2c(O)cc(O)cc2O1

>  <valueKind>
inhibition

>  <scaleUnit>
%

>  <val>
-4.17

$$$$
>  <molecule>
O=C(CNC(=O)c1ccccc1F)NCCN1C(=O)S/C(=C\c2ccc3c(c2)OCO3)C1=O

>  <valueKind>
inhibition

>  <scaleUnit>
%

>  <val>
-1.45

$$$$
>  <molecule>
O=C(CCN1C(=O)/C(=C/c2ccco2)SC1=S)Nc1ccc(C(=O)O)c(O)c1

>  <valueKind>
inhibition

>  <scaleUnit>
%

>  <val>
48.7

$$$$
>  <molecule>
CNC[C@@H]1OCc2cnnn2CCCC(=O)N([C@H](C)CO)C[C@H]1C

>  <valueKind>
inhibition

>  <scaleUnit>
%

>  <val>
2.27

$$$$
>  <molecule>
CCc1ccc(OCC(O)CNC(C)(C)C)cc1 (stereo not drawn)

>  <valueKind>
inhibition

>  <scaleUnit>
%

>  <val>
-2.07

$$$$
>  <molecule>
COc1ccc(S(=O)(=O)Nc2c(C(=O)O)[nH]c3ccccc23)cc1OC

>  <valueKind>
inhibition

>  <scaleUnit>
%

>  <val>
1.6

$$$$
>  <molecule>
O=C(O)C(Cc1ccccc1)N1C(=O)/C(=C/c2cccnc2)SC1=S (stereo not drawn)

>  <valueKind>
inhibition

>  <scaleUnit>
%

>  <val>
8.37

$$$$
>  <molecule>
Cc1ccccc1N1C(=O)C(Cl)=C(N2CCN(c3ccccc3)CC2)C1=O

>  <valueKind>
inhibition

>  <scaleUnit>
%

>  <val>
-3.27

$$$$
>  <molecule>
O=C(CN1C(=O)S/C(=C\c2cccs2)C1=O)Nc1ccc(O)c(C(=O)O)c1

>  <valueKind>
inhibition

>  <scaleUnit>
%

>  <val>
8.14

$$$$
>  <molecule>
Cc1ccc(S(=O)(=O)N2[C@@H](c3ccc(Br)cc3)C(C(=O)O)=CC[C@H]2c2ccc(Cl)cc2)cc1

>  <valueKind>
inhibition

>  <scaleUnit>
%

>  <val>
26.7

$$$$
>  <molecule>
Cc1ccc2cc(C=O)c(Cl)nc2c1

>  <valueKind>
inhibition

>  <scaleUnit>
%

>  <val>
-3.88

$$$$
>  <molecule>
CCCCCn1c(=O)c(C(=O)OCC)c(O)c2ccccc21

>  <valueKind>
inhibition

>  <scaleUnit>
%

>  <val>
-0.68

$$$$
>  <molecule>
CCCCn1c(=O)c(C(=O)OCC)c(O)c2ccccc21

>  <valueKind>
inhibition

>  <scaleUnit>
%

>  <val>
3.24

$$$$
>  <molecule>
O=C(CN1C(=O)/C(=C/c2ccco2)SC1=S)Nc1ccc(C(=O)O)c(O)c1

>  <valueKind>
inhibition

>  <scaleUnit>
%

>  <val>
36.5

$$$$
>  <molecule>
CC1=CC(C)(C)C(C(=O)O)C(C(=O)O)C1 (stereo not drawn)

>  <valueKind>
inhibition

>  <scaleUnit>
%

>  <val>
-2.42

$$$$
>  <molecule>
COCC(C)n1c(SCC(=O)NC(=O)Cc2ccccc2)nc2ccccc2c1=O (stereo not drawn)

>  <valueKind>
inhibition

>  <scaleUnit>
%

>  <val>
1.46

$$$$
>  <molecule>
COc1cc(C(=O)Nc2c(C(=O)O)[nH]c3ccccc23)cc(OC)c1OC

>  <valueKind>
inhibition

>  <scaleUnit>
%

>  <val>
-6.62

$$$$
>  <molecule>
O=C(CSCc1c(F)cccc1Cl)NCc1ccco1

>  <valueKind>
inhibition

>  <scaleUnit>
%

>  <val>
-1.37

$$$$
>  <molecule>
O=C1[C@H]2[C@@H](c3ccccc3)N[C@]3(CCCN(Cc4ccc(Cl)cc4)C3=O)[C@H]2C(=O)N1Cc1ccccc1

>  <valueKind>
inhibition

>  <scaleUnit>
%

>  <val>
-4.41

$$$$
>  <molecule>
CCn1c(=O)c(-c2ccccc2)c(O)c2ccccc21

>  <valueKind>
inhibition

>  <scaleUnit>
%

>  <val>
0

$$$$
>  <molecule>
O=C1C(Cl)=C(N2CCCCC2)C(=O)N1c1ccccc1Cl

>  <valueKind>
inhibition

>  <scaleUnit>
%

>  <val>
16.1

$$$$
>  <molecule>
CCc1ccccc1N1C(=O)c2cccc3c(N4CCOCC4)c([N+](=O)[O-])cc(c23)C1=O

>  <valueKind>
inhibition

>  <scaleUnit>
%

>  <val>
-4.86

$$$$
>  <molecule>
O=C(CN1C(=O)S/C(=C\c2cccs2)C1=O)Nc1ccc(O)cc1C(=O)O

>  <valueKind>
inhibition

>  <scaleUnit>
%

>  <val>
14.3

$$$$
>  <molecule>
CCOC(=O)c1c(C)nc(C)c(C(=O)OCC)c1-c1ccc(OC)cc1

>  <valueKind>
inhibition

>  <scaleUnit>
%

>  <val>
0.8

$$$$
>  <molecule>
O=c1[nH]c2ccccc2c(O)c1-c1ccccc1[N+](=O)[O-]

>  <valueKind>
inhibition

>  <scaleUnit>
%

>  <val>
-7.29

$$$$
>  <molecule>
O=C(CCCN1C(=O)/C(=C\c2ccccc2)SC1=S)Nc1ccc(O)cc1C(=O)O

>  <valueKind>
inhibition

>  <scaleUnit>
%

>  <val>
20.6

$$$$
>  <molecule>
O=C(NCCCN1CCCC1=O)c1cccc(N2CCCC2=O)c1

>  <valueKind>
inhibition

>  <scaleUnit>
%

>  <val>
-1.47

$$$$
>  <molecule>
COC(=O)Nc1nc(-c2ccccc2)c(C(=O)c2ccccc2)s1

>  <valueKind>
inhibition

>  <scaleUnit>
%

>  <val>
-4.12

$$$$
>  <molecule>
CC1(C)CC(=O)C(CC2=C(O)CC(C)(C)CC2=O)C(=O)C1

>  <valueKind>
inhibition

>  <scaleUnit>
%

>  <val>
-33.8

$$$$
>  <molecule>
CCCC(C1=C(O)CC(C)(C)CC1=O)C1C(=O)CC(C)(C)CC1=O (stereo not drawn)

>  <valueKind>
inhibition

>  <scaleUnit>
%

>  <val>
-11.2

$$$$

====

Each entry below carries its reported inhibition.
biological target: Genome polyprotein (Dengue virus type 2 (strain 16681-PDK53)) (UniProt P29991); test: flavivirus cap methylation enzyme inhibition – biochemical, confirmation dose response, primary screen (AID 588689); conditions: Dengue-2 NS5 methyltransferase capping enzyme assay, at 25 µM, stronger effect = higher value
Hit rate of the full screen: of about 340,000 compounds, about 1,000 (0.29%) were called active. Not all results are given here. Entries with a potency or affinity are not part of this list.

>  <compound>
CCOC(=O)N/N=C/c1cc(C)n(-c2cccc3ccccc23)c1C

>  <inhibition>
1.3% (inactive)

$$$$
>  <compound>
Cc1nn(-c2ccccc2)nc1CNC(=O)C(C)Cc1ccccc1 (stereo not given)

>  <inhibition>
-2.38% (inactive)

$$$$
>  <compound>
COc1ccc([N+](=O)[O-])cc1N(CC(=O)NC1CCCCC1)S(C)(=O)=O

>  <inhibition>
1.47% (inactive)

$$$$
>  <compound>
CC(C)(C)C(=O)Nc1ccc(C(=O)Nc2cccc(Oc3ccc(C(=O)O)c(C(=O)O)c3)c2)cc1

>  <inhibition>
9.79% (inactive)

$$$$
>  <compound>
O=C(c1ccccc1)c1ccc(Oc2ccc(C(=O)O)c(C(=O)O)c2)cc1

>  <inhibition>
2.64% (inactive)

$$$$

Data origin: PubChem BioAssay AID588689
